test: Oral bioavailability in human; format: ADME, organism-based; details: in vivo
result_type: bioavailability (%)
Give the value in % but do not write % after it.

Query: Identify bioavailability associated with the molecule CCCCCNC(=N)N/N=C/c1c[nH]c2ccc(OC)cc12 [TEGASEROD]
Reply: 10

====

target: 5-hydroxytryptamine receptor 4 (Homo sapiens, UniProt Q13639); assay: Agonist activity at human 5HT4C receptor expressed in HEK293 cells assessed as accumulation of cAMP by flash plate adenylyl cyclase activation assay
Sequence (Q13639 whole entry): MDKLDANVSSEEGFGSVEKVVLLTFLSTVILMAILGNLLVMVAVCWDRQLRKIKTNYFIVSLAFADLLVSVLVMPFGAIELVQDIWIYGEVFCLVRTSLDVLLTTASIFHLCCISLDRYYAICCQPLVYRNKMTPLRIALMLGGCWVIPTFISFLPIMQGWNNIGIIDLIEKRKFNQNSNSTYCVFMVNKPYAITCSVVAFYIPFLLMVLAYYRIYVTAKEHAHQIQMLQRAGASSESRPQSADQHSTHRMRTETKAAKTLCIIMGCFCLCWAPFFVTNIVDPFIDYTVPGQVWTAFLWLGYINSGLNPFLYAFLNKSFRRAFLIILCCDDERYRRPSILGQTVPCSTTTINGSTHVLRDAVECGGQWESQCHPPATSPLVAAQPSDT
pEC50: −log10 of the molar value.
Kindly return true (1) if reported pEC50 is no lower than 8; return false (0) if it is lower.

Reference set (3 entries):
                               smiles_entry   category
0  COc1cc(N)c(Cl)cc1C(=O)NC1CCN(CCCCCN(C)CCc2c[nH]c3ccccc23)CC1   true (1)
1  CC(C)n1c(=O)c(C(=O)N[C@H]2C[C@H]3CC[C@@H](C2)N3CCCCCCCN2CCOCC2)cc2ccccc21   true (1)
2  CC(C)n1nc(C(=O)N[C@H]2C[C@H]3CC[C@@H](C2)N3)c2ccccc21  false (0)

Query: In plain terms: is recorded pEC50 at least 8 for "COc1ccc2[nH]cc(C(=O)NCC3CCNCC3)c2c1" ?
Reply: false (0)

Query: In plain terms: is recorded pEC50 at least 8 for "COc1cc(N)c(Cl)cc1C(=O)NCC1CCNCC1" ?
Reply: false (0)

====

target: 5-hydroxytryptamine receptor 4 (Homo sapiens, UniProt Q13639); test: Agonist activity at human 5HT4C receptor expressed in HEK293 cells assessed as accumulation of cAMP by flash plate adenylyl cyclase activation assay
pEC50: −log10 of the molar value.
Kindly return fulfilled if reported pEC50 is no lower than 8; return not fulfilled if it is lower.

Query: In plain terms: is recorded pEC50 at least 8 for "COc1cc(N)c(Cl)cc1C(=O)NC1CCN(CCCCCCCCN2C(=O)c3ccccc3C2=O)CC1" ?
Reply: fulfilled

Query: In plain terms: is recorded pEC50 at least 8 for "CC(C)n1c(=O)c(C(=O)N[C@H]2C[C@H]3CC[C@@H](C2)N3CCN2C(=O)c3ccccc3C2=O)cc2ccccc21" ?
Reply: not fulfilled

Query: In plain terms: is recorded pEC50 at least 8 for "COc1cc(N)c(Cl)cc1C(=O)NC1CCNCC1" ?
Reply: not fulfilled

Query: In plain terms: is recorded pEC50 at least 8 for "COc1ccc2[nH]cc(C(=O)N[C@H]3C[C@H]4CC[C@@H](C3)N4)c2c1" ?
Reply: not fulfilled

Query: In plain terms: is recorded pEC50 at least 8 for "CCCCCN1CCC(NC(=O)c2cc(Cl)c(N)cc2OC)CC1" ?
Reply: not fulfilled

Query: In plain terms: is recorded pEC50 at least 8 for "CC(C)n1c(=O)c(C(=O)NC2CCNCC2)cc2ccccc21" ?
Reply: not fulfilled

Query: In plain terms: is recorded pEC50 at least 8 for "CC(C)n1c(=O)c(C(=O)N[C@H]2C[C@H]3CC[C@@H](C2)N3CCCN2CCC[C@@H]2C(N)=O)cc2ccccc21" ?
Reply: fulfilled

====

species on record: Homo sapiens; experiment: Selectivity ratio of Ki for human 5HT3A receptor to Ki for human 5HT4C receptor
Ratio Ki overview
Format: numeric value only, no unit, no commentary.

Below: 3 molecules and their reported Ratio Ki.
                               smiles_entry  measured_number
0  CC(C)n1c(=O)c(C(=O)N[C@H]2C[C@H]3CC[C@@H](C2)N3CCCCCCCN2CCC[C@@H]2C(N)=O)cc2ccccc21            20000
1  CC(C)n1c(=O)c(C(=O)N[C@H]2C[C@H]3CC[C@@H](C2)N3CCCCCCCN2CCN(S(C)(=O)=O)CC2)cc2ccccc21             2600
2  CC(C)n1c(=O)c(C(=O)N[C@H]2C[C@H]3CC[C@@H](C2)N3CCCCCCCN2CCCCC2)cc2ccccc21            10000

Then there is this molecule:
Query: Identify Ratio Ki associated with the molecule "CC(C)n1c(=O)c(C(=O)NC2CCNCC2)cc2ccccc21"
Reply: 0.14
